permeability coefficient log Pe by entry:
Protocol Summary: PAMPA test (skin permeability model)
Experimental Setup: 70% silicone oil-30% IPM membrane, 7 h incubation, 100 μM in 5% DMSO phosphate buffer pH 7, triplicate mean
Number only, in cm/s; omit the unit.

Some compounds with known permeability coefficient log Pe results, for comparison:
Requested field: permeability coefficient log Pe. Item: CCOC(CC)C(=O)OCC(=O)C1(O)C(C)CC2C3CCC4=CC(=O)C=CC4(C)C3(F)C(O)CC21C (stereo not shown) [DEX-21-EB, dexamethasone 21-(2′-ethoxybutyrate)]
−4.58

And the next one, CCC(OC)C(=O)OCC(=O)C12OC(C)(C)OC1CC1C3CCC4=CC(=O)C=CC4(C)C3(F)C(O)CC12C (stereo not shown) ?
−4.85

And the next one, CCC(OC)C(=O)OCC(=O)C12OC(C)(C)OC1CC1C3CC(F)C4=CC(=O)C=CC4(C)C3(F)C(O)CC12C (stereo not shown) ?
−4.65

And the next one, CCOC(CC)C(=O)OCC(=O)C12OC(C)(C)OC1CC1C3CC(F)C4=CC(=O)C=CC4(C)C3(F)C(O)CC12C (stereo not shown) ?
−4.82

And the next one, CCOC(CC)C(=O)OCC(=O)C12OC(C)(C)OC1CC1C3CCC4=CC(=O)C=CC4(C)C3(F)C(O)CC12C (stereo not shown) ?
−4.87

Further cases:
Requested field: permeability coefficient log Pe. Item: CCC(OC)C(=O)OCC(=O)C1(O)C(C)CC2C3CCC4=CC(=O)C=CC4(C)C3(F)C(O)CC21C (stereo not shown) [DEX-21-MB, dexamethasone 21-(2′-methoxybutyrate)]
−4.58

And the next one, CCOC(C)C(=O)OCC(=O)[C@@]12OC(C)(C)O[C@@H]1C[C@H]1[C@@H]3C[C@H](F)C4=CC(=O)C=C[C@]4(C)[C@@]3(F)[C@@H](O)C[C@@]12C (stereo partly shown) ?
−4.52

And the next one, COC(C)C(=O)OCC(=O)C1(O)C(C)CC2C3CCC4=CC(=O)C=CC4(C)C3(F)C(O)CC21C (stereo not shown) [DEX-21-MP, dexamethasone 21-(2′-methoxypropionate)] ?
−4.88

And the next one, CC(Oc1ccccc1)C(=O)OCC(=O)C12OC(C)(C)OC1CC1C3CCC4=CC(=O)C=CC4(C)C3(F)C(O)CC12C (stereo not shown) ?
−4.07

And the next one, CC(Oc1ccccc1)C(=O)OCC(=O)C12OC(C)(C)OC1CC1C3CC(F)C4=CC(=O)C=CC4(C)C3(F)C(O)CC12C (stereo not shown) ?
−5.68

And the next one, COC(C)C(=O)OCC(=O)C12OC(C)(C)OC1CC1C3CCC4=CC(=O)C=CC4(C)C3(F)C(O)CC12C (stereo not shown) ?
−4.45

And the next one, CCOC(C)C(=O)OCC(=O)C12OC(C)(C)OC1CC1C3CCC4=CC(=O)C=CC4(C)C3(F)C(O)CC12C (stereo not shown) ?
−4.66

And the next one, COC(C)C(=O)OCC(=O)[C@@]12OC(C)(C)O[C@@H]1C[C@H]1[C@@H]3C[C@H](F)C4=CC(=O)C=C[C@]4(C)[C@@]3(F)[C@@H](O)C[C@@]12C (stereo partly shown) ?
−4.64

---

Protocol Summary: approximate logKp (permeability coefficient through human skin) calculated from logPe by equation (1)
Experimental Setup: logKp = 1.34 logPe + 0.28, from PAMPA logPe
logKp (approximate, calculated) by entry:
A bare number is all that is needed in reply.

Requested field: logKp (approximate, calculated). Item: C[C@@H]1C[C@H]2[C@@H]3CCC4=CC(=O)C=C[C@]4(C)[C@@]3(F)[C@@H](O)C[C@]2(C)[C@@]1(O)C(=O)CO [DEX, dexamethasone, reference compound]
−7.75

And the next one, CC(=O)OCC(=O)[C@@]1(O)CC[C@H]2[C@@H]3CCC4=CC(=O)CC[C@]4(C)[C@H]3[C@@H](O)C[C@@]21C [H-21-Ac, hydrocortisone acetate, reference compound] ?
−6.51

And the next one, C[C@@H]1C[C@H]2[C@@H]3CCC4=CC(=O)C=C[C@]4(C)[C@@]3(Cl)[C@@H](O)C[C@]2(C)[C@@]1(OC(=O)c1ccco1)C(=O)CCl [MF, mometasone furoate, reference compound] ?
−5.21

And the next one, CC1(C)O[C@@H]2C[C@H]3[C@@H]4CCC5=CC(=O)C=C[C@]5(C)[C@@]4(F)[C@@H](O)C[C@]3(C)[C@]2(C(=O)CO)O1 [TA, triamcinolone acetonide, reference compound] ?
−6.43

Let's switch to this compound now.
Requested field: logKp (approximate, calculated). Item: CC1(C)O[C@@H]2C[C@H]3[C@@H]4C[C@H](F)C5=CC(=O)C=C[C@]5(C)[C@@]4(F)[C@@H](O)C[C@]3(C)[C@]2(C(=O)CO)O1 [FA, fluocinolone acetonide, reference compound]
−6.77

---

Protocol Summary: PAMPA test (skin permeability model)
Experimental Setup: 70% silicone oil-30% IPM membrane, 7 h incubation, 100 μM in 5% DMSO phosphate buffer pH 7, triplicate mean
Endpoint Label: permeation parameter CA(t)/CD(0) (%)
Number only, in %; omit the unit.

Some molecules with known permeation parameter CA(t)/CD(0) results, for comparison:
Requested field: permeation parameter CA(t)/CD(0). Item: CC(Oc1ccccc1)C(=O)OCC(=O)C1(O)C(C)CC2C3CCC4=CC(=O)C=CC4(C)C3(F)C(O)CC21C (centres unmarked) [DEX-21-PhP, dexamethasone 21-(2′-phenoxypropionate)]
4.1

And the next one, CCOC(CC)C(=O)OCC(=O)C1(O)C(C)CC2C3CCC4=CC(=O)C=CC4(C)C3(F)C(O)CC21C (centres unmarked) [DEX-21-EB, dexamethasone 21-(2′-ethoxybutyrate)] ?
33.4

And the next one, CCOC(CC)C(=O)OCC(=O)C12OC(C)(C)OC1CC1C3CCC4=CC(=O)C=CC4(C)C3(F)C(O)CC12C (centres unmarked) ?
7.3

And the next one, CCC(OC)C(=O)OCC(=O)C12OC(C)(C)OC1CC1C3CCC4=CC(=O)C=CC4(C)C3(F)C(O)CC12C (centres unmarked) ?
16.9

Further cases:
Requested field: permeation parameter CA(t)/CD(0). Item: COC(C)C(=O)OCC(=O)C1(O)C(C)CC2C3CCC4=CC(=O)C=CC4(C)C3(F)C(O)CC21C (centres unmarked) [DEX-21-MP, dexamethasone 21-(2′-methoxypropionate)]
23.8

And the next one, CC1(C)O[C@@H]2C[C@H]3[C@@H]4C[C@H](F)C5=CC(=O)C=C[C@]5(C)[C@@]4(F)[C@@H](O)C[C@]3(C)[C@]2(C(=O)CO)O1 [FA, fluocinolone acetonide, reference compound] ?
6.7

And the next one, CCC(OC)C(=O)OCC(=O)C12OC(C)(C)OC1CC1C3CC(F)C4=CC(=O)C=CC4(C)C3(F)C(O)CC12C (centres unmarked) ?
18.0

And the next one, CC1(C)O[C@@H]2C[C@H]3[C@@H]4CCC5=CC(=O)C=C[C@]5(C)[C@@]4(F)[C@@H](O)C[C@]3(C)[C@]2(C(=O)CO)O1 [TA, triamcinolone acetonide, reference compound] ?
10.8

And the next one, CC(Oc1ccccc1)C(=O)OCC(=O)C12OC(C)(C)OC1CC1C3CCC4=CC(=O)C=CC4(C)C3(F)C(O)CC12C (centres unmarked) ?
27.1

And the next one, C[C@@H]1C[C@H]2[C@@H]3CCC4=CC(=O)C=C[C@]4(C)[C@@]3(Cl)[C@@H](O)C[C@]2(C)[C@@]1(OC(=O)c1ccco1)C(=O)CCl [MF, mometasone furoate, reference compound] ?
7.7

And the next one, CCOC(C)C(=O)OCC(=O)[C@@]12OC(C)(C)O[C@@H]1C[C@H]1[C@@H]3C[C@H](F)C4=CC(=O)C=C[C@]4(C)[C@@]3(F)[C@@H](O)C[C@@]12C (some centres unmarked) ?
22.2
